assay.overview: physchem
test.conditions: pH 7
measured.endpoint: solubility at 24 h

INSERT INTO results (molecule, observed_result) VALUES
  ('CCCCCCCCCCCCCC(=O)O [Samarium miristate, samarium miristate]', '< 2 µg/mL');

====

assay.overview: physchem
test.conditions: pH 1.2
measured.endpoint: solubility at 24 h (µg/mL)

INSERT INTO measurements (compound, measured_endpoint, unit_spec, observed_result) VALUES
  ('CCCCCCCCCCCCCC(=O)O [Samarium miristate, samarium miristate]', 'solubility at 24 h', 'µg/mL', 90);

====

assay.overview: physchem
test.conditions: pH 5.2
measured.endpoint: solubility at 24 h

INSERT INTO assay_data (compound, observed_result) VALUES
  ('CCCCCCCCCCCCCC(=O)O [Samarium miristate, samarium miristate]', '< 2 µg/mL');
